# Test system: mu opiate receptor (MOR)
# testName: MOR agonist activity using [35S]GTPγS binding assay in striatal membranes
# Format: biochemical
# measurementContext: Series C-1; 1 μM compound, relative to DAMGO
% DAMGO (1 μM) listing for selected compounds.
Just so you know, I need the unit written after the number.

{"columns": ["compound", "measuredQuantity", "val"],
 "data": [
  ["COc1ccc(S(=O)(=O)N2CCCC3(C2)OCCN3S(=O)(=O)c2ccc(OC)cc2)cc1 (stereo not shown) [Compound C0145M]", "% DAMGO (1 μM)", "88.7%"],
  ["COc1ccc(S(=O)(=O)N2CCOC23CCN(S(=O)(=O)c2ccc(C(C)=O)cc2)CC3)cc1", "% DAMGO (1 μM)", "88.5%"],
  ["O=C1CN(Cc2ccccc2)C2(CCN(S(=O)(=O)c3cc(Cl)c(O)c(Cl)c3)CC2)N1 [Compound C0139M]", "% DAMGO (1 μM)", "102.2%"]
]}

Now consider a different compound.
Input O=S(=O)(c1ccc(C(F)(F)F)cc1Br)N1CCC2(CC1)OCCN2S(=O)(=O)c1ccc(C(F)(F)F)cc1Br . Output % DAMGO (1 μM): 161.7%
